test system: Leishmania; conditions: at 30 µM;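 note: enzyme assay on Leishmania CRK3/CYC6 kinase, histone H1 with radiolabelled ATP as substrates, 30 min incubation, inhibition relative to untreated control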
Description: Inhibition of Leishmania CRK3/CYC6 using histone H1/[gamma33-P]ATP as substrate at 30 uM after 30 mins relative to control
True means recorded inhibition is 50% or above; False means it is below 50%.

# Substance smiles, Discrete label
rows = [
    ("CC(C)n1cnc2c(NCc3ccccc3)nc(N(CCO)CCO)nc21", "False"),
    ("CC[C@H](CO)Nc1nc(NCc2ccc(O)cc2)c2ncn(C(C)C)c2n1", "False"),
    ("CC(C)n1cnc2c(NCc3ccccc3)nc(NC[C@H](C)O)nc21", "True"),
    ("CC[C@H](CO)Nc1nc(NCc2ccc(OC)cc2O)c2ncn(C(C)C)c2n1", "True"),
    ("CC(C)n1cnc2c(NCc3ccccc3O)nc(N3CCN(CC#N)CC3)nc21", "True"),
]

All values here come from ChEMBL document CHEMBL3421618.
